Experiment: Quantitative High-Throughput drug screen in 47 multiple myeloma cell lines against the NCATS MIPE library collection: XG6_PLB cell viability assay (AID 1919865); also: nearly all actives have a fitted effect of over 40% in size
Details: XG6 myeloma viability, CellTiter-Glo ATP luminescence, 48 h; series mostly up to 45.8 µM
Inconclusive results are not listed. The source made the active and inactive calls. Calls follow the shape of the dose curve; as a rule, active = well fitted cell-killing curve with a large enough effect; inconclusive = small, poorly fitted or top-dose-only effect, or effect the other way; inactive = no such curve, though single readings can be large or run the other way.
Labels: active, inactive

| Compound | Cat |
| --- | --- |
| CC(C)NCC(O)COc1ccc(COCCOC(C)C)cc1 (stereo not given) | inactive |
| CS(=O)(=O)Oc1ccc2c(NC(N)=O)c(C(=O)c3ccc(Cl)cc3Cl)oc2c1 | active |
| CC1(C)Cc2c(-c3ccccc3)c(-c3ccc(Cl)cc3)c(CC(=O)O)n2C1 | active |
| Cc1cnc(Nc2ccc(OCCN3CCCC3)cc2)nc1Nc1cccc(S(=O)(=O)NC(C)(C)C)c1 | inactive |
| Cn1cnc2c(F)c(Nc3ccc(Br)cc3Cl)c(C(=O)NOCCO)cc21 | active |
| Cc1cccc(-c2nn(C(=S)Nc3ccccc3)cc2-c2ccnc3ccccc23)n1 | inactive |
| O=C1[C@H](Cc2ccc(O)cc2)N2C(=O)CCN(C(=O)NCc3ccccc3)[C@H]2CN1Cc1cccc2ccccc12 | active |
| OCCn1cc(-c2cnc3nnn(Cc4ccc5ncccc5c4)c3n2)cn1 | inactive |
| O=C(Nc1cccnc1)N1CCC(Cc2cccc(Oc3ccc(C(F)(F)F)cn3)c2)CC1 | active |
| CCn1cc(C(=O)O)c(=O)c2cc(F)c(N3CCNC(C)C3)c(F)c21 (stereo not given) | inactive |

---

Tested on: MCC-26
Test: qHTS assay to identify novel small-molecules to repurpose for Merkel cell carcinoma treatment (AID 1296009); also: nearly all actives have a fitted effect of over 60% in size
Conditions: MCC and control cell lines, CellTiter-Glo viability, 72 h; series mostly up to 46 µM
Results filed as inconclusive are left out. Calls of active or inactive are those of the source. Calls come from the whole dose curve; as a rule, active = well fitted inhibition curve with a large enough effect; inconclusive = small, poorly fitted or top-dose-only effect; inactive = flat fitted curve, though single readings scatter.

| Compound | outcome |
| --- | --- |
| O=C(Nc1ccc(F)c(C(F)(F)F)c1)Nc1nnc(-c2ccncc2)s1 | inactive |
| COc1ccc(-c2c(-c3ccc(O)cc3O)n[nH]c2C)cc1 | inactive |
| CC(C=CC1=C(C)CCCC1(C)C)=CC=CC(C)=CC(=O)O | inactive |
| CCc1ccc(CCOc2ccc(CC3SC(=O)NC3=O)cc2)nc1 (stereo not given) | inactive |
| CCC(C)N(C)C(=O)c1cc2ccccc2c(-c2ccccc2Cl)n1 (stereo not given) | inactive |
| COc1ccc2nc(S(=O)Cc3ncc(C)c(OC)c3C)[nH]c2c1 (stereo not given) | inactive |
| O=C1CCCC2=C1C(c1[nH]ncc1Cl)N=C(Nc1nc3ccccc3o1)N2 (stereo not given) | inactive |
| Cc1cc2c(F)c(Oc3ncnn4cc(OC[C@@H](C)O)c(C)c34)ccc2[nH]1 | inactive |
| CCCn1c(=O)c2[nH]c(C34CC5CC3C[C@@H](C5)C4)nc2n(CCC)c1=O | inactive |
| CNC(=O)c1ccc(C)c(-n2c(C)cc(OCc3ccc(F)cc3F)c(Br)c2=O)c1 | inactive |
| CCc1cncnc1N1CCN(Cc2nc3ccc(C(F)(F)F)cc3[nH]2)CC1 | inactive |
| Cc1cccc(-c2nn(C(=S)Nc3ccccc3)cc2-c2ccnc3ccccc23)n1 | inactive |
| OC[C@H](Cc1ccccc1)Nc1nc(Oc2ccc3c(c2)CCC3)nc2c1ncn2Cc1ccc(-c2ccccc2)cc1 | inactive |
| CN(C)C(=O)c1ccc(S(=O)(=O)c2ccc(NC(=O)[C@@](C)(O)C(F)(F)F)c(Cl)c2)cc1 | inactive |
| C[C@]12CCC(=O)C=C1CC[C@@H]1[C@@H]2[C@@H](O)C[C@@]2(C)[C@H]1CC[C@]2(O)C(=O)CO | inactive |
| CCN(CC)CCCC(C)Nc1ccnc2cc(Cl)ccc12 (stereo not given) | inactive |
| Cc1ccc(NC(=O)c2cccc(C(C)(C)C#N)c2)cc1Nc1ccc2ncn(C)c(=O)c2c1 | inactive |
| O=C(Nc1cccnc1)N1CCC(Cc2cccc(Oc3ccc(C(F)(F)F)cn3)c2)CC1 | inactive |
| CN(C(=O)c1ccc(F)cc1C(F)(F)F)C1CCN(c2nnc(-c3ccnn3C)c3ccccc23)CC1 | inactive |
| OCCC#Cc1nc(-c2ccc(F)cc2)c(-c2ccncc2)n1CCCc1ccccc1 | inactive |

# credit: PubChem BioAssay (NCATS)
